test: collision cross section (DTIM-MS, N2); higher = larger ion; conditions: ion adduct: [M+H]+
Short version: collision cross section at least 200 Å² is satisfied, less is not satisfied.

Worked examples, 8 compounds total:
O=c1cc(-c2ccccc2)c2ccc(O)c(O)c2o1 [7,8-Dihydroxy-4-phenylcoumarin]    not satisfied
CC(C)=CC(=O)OC1Cc2cc3ccc(=O)oc3cc2OC1(C)C (stereo not drawn)    not satisfied
NC(=O)c1ccccc1O [Salicylamide]    not satisfied
Cc1cc(=O)oc2cc(O)c(O)cc12 [4-Methyl-6,7-dihydroxycoumarin]    not satisfied
COC(=O)Nc1nc2ccccc2[nH]1    not satisfied
CNC[C@H](O)[C@@H](O)[C@H](O)[C@H](O)CO    not satisfied
COc1c2ccoc2cc2oc(=O)ccc12    not satisfied
Nc1nc(Cl)nc2c1ncn2[C@@H]1O[C@H](CO)[C@@H](O)[C@@H]1F    not satisfied

Query: Given the entry "COc1cc(O)c2c(c1)oc(=O)c1c3cc(O)c(O)cc3oc21" , answer whether its collision cross section meets or surpasses 200 Å².
Response: not satisfied

Query: Would you mind doing COc1ccc(CC2c3cc(Oc4cc(CC5c6cc(OC)c(OC)cc6CCN5C)ccc4O)c(OC)cc3CCN2C)cc1 (stereo not drawn) as well?
Response: satisfied

Query: Same read-out for CC(=O)OC5CC(=O)O[C@@](C)(C)[C@@H]6CC(=O)[C@]3(C)[C@H](CC[C@@]2(C)[C@@H](OC(=O)[C@H]1O[C@]123)c4ccoc4)[C@@]56C (stereo partly drawn) ?
Response: satisfied

Query: Next compound up: "COc1cc2c3c(c1OC)-c1ccccc1C[C@H]3N(C)CC2"
Response: not satisfied

Query: Now the same for "O=C(/C=C/C=C/c1ccc2c(c1)OCO2)N1CCCCC1"
Response: not satisfied

Query: Follow-up item: "COc1cc(C=CC(=O)CC(=O)C=Cc2ccc(O)cc2)ccc1O"
Response: not satisfied

Query: Same thing, different compound: "O=c1c(-c2ccc(O)cc2)coc2cc(O[C@@H]3O[C@H](CO)[C@@H](O)[C@H](O)[C@H]3O)cc(O)c12"
Response: satisfied

Query: Here is the next compound: CC(=O)Nc1nnc(S(N)(=O)=O)s1 [Acetazolamide]
Response: not satisfied

* * *

assay: collision cross section (DTIM-MS, N2); higher = larger ion; conditions: ion adduct: [M+H]+
observed-property: collision cross section (Å²)
Answers are plain numbers, in Å².

Previously resolved entries follow.
COc1cc2c(cc1OC)C(Cc1ccc(Oc3cc(CC4c5cc(OC)c(OC)cc5CCN4C)ccc3O)cc1)N(C)CC2 (centres undefined) [Dauricine]    248.03
COC1=CC(=O)O[C@@H](CCc2ccccc2)C1 [Dihydrokavain]    149.11
O=C(Nc1ccc(Cl)cc1)Nc1ccc(Cl)c(Cl)c1 [Triclocarban]    173.83

Batch request: collision cross section for each of the following compounds.
1. CC(C)NC(=O)N1CC(=O)N(c2cc(Cl)cc(Cl)c2)C1=O [Iprodione]
2. COc1ccc(C=Cc2cc(OC)cc(=O)o2)cc1 [yangonin]
3. O=C(Nc1ccc(O)cc1)c1ccccc1O [Osalmid]
4. COc1ccc(-c2cc(=O)c3c(O)cc(O)cc3o2)cc1-c1c(O)cc(O)c2c(=O)cc(-c3ccc(O)cc3)oc12 [Bilobetin]
5. Cn1c(=O)c2[nH]cnc2n(C)c1=O [Theophylline]
6. C[C@]12C=CC(=O)C=C1CC[C@@H]1[C@@H]2C(=O)C[C@@]2(C)[C@H]1CC[C@]2(O)C(=O)CO [Prednisone]

Response:
[180.27, 163.31, 151.37, 230.49, 137.12, 185.04]

* * *

experiment: collision cross section (DTIM-MS, N2); higher = larger ion; conditions: ion adduct: [M+H]+
observed-property: collision cross section (Å²)
Answers are plain numbers, in Å².

COc1cc(/C=C/C(=O)N2CCC=CC2=O)cc(OC)c1OC [Piperlongumine]    179.46
COc1cc(O)c2c(=O)cc(-c3ccc(O)cc3)oc2c1 [Genkwanin]    163.54
COc1ccc2c(c1)c(CC(=O)O)c(C)n2C(=O)c1ccc(Cl)cc1 [Indometacin]    181.26
O=C(Nc1ccccc1)c1ccccc1I [Benodanil]    152.62
COc1cc(C2c3cc4c(cc3C(O)C3COC(=O)C23)OCO4)cc(OC)c1O (stereo not drawn) [4'-Demethylpodophyllotoxin]    195.99
CCC(=O)c1ccc(O)cc1 [Vanatone]    130
COc1ccc(-c2cc(=O)c3c(O)cc(O)c(-c4cc(-c5cc(=O)c6c(O)cc(O)cc6o5)ccc4OC)c3o2)cc1 [Isoginkgetin]    231.51

Query: Dear colleague, I am looking for the recorded collision cross section of the following compound: N#C[C@H](O[C@@H]1O[C@H](CO[C@@H]2O[C@H](CO)[C@@H](O)[C@H](O)[C@H]2O)[C@@H](O)[C@H](O)[C@H]1O)c1ccccc1 [Amygdalin]
Response: 214.69

* * *

Answer each item with its documented collision cross section.
assay: collision cross section (DTIM-MS, N2); higher = larger ion; details: ion adduct: [M+H]+
Numbers only, in Å².

The cases that follow already have their collision cross section on record.
CCC(C)(C)C(=O)O[C@H]1C[C@@H](C)C=C2C=C[C@H](C)[C@H](CC[C@@H]3C[C@@H](O)CC(=O)O3)[C@H]21    207.6
O=C(O)c1ccccc1Nc1cccc(C(F)(F)F)c1    159.39

Batch request: collision cross section for each of the following compounds.
1. Cn1c(=O)c2c(ncn2CC(=O)O)n(C)c1=O
2. O=C(C=CC=Cc1ccccc1)CCc1ccccc1
3. Nc1nc2c(ncn2COCCO)c(=O)[nH]1
4. Nc1nc(N)nc(NC2CC2)n1
5. C=CCc1cc(OC)c(OC)c(OC)c1

Response:
1. 152.03
2. 168.73
3. 149.17
4. 135.92
5. 144.76

* * *

experiment: collision cross section (DTIM-MS, N2); higher = larger ion; conditions: ion adduct: [M+H]+
observed-property: collision cross section
Express your answer as a number followed by its unit.

Field: example entries. Status: answers known.
COC1=CC(=O)O[C@@H](/C=C/c2ccccc2)C1    150.52 Å²
C[C@H]1O[C@@H](O[C@@H]2[C@@H](O)[C@H](O)[C@@H](CO)O[C@H]2c2c(O)cc(O)c3c(=O)cc(-c4ccc(O)cc4)oc23)[C@@H](O)[C@@H](O)[C@@H]1O [Vitexin-2''-O-rhamnoside]    221.54 Å²
C=CC(C)(C)c1cc(/C=C/C(=O)c2ccc(O)cc2)c(OC)cc1O    191.26 Å²

Batch request: collision cross section per item, same order as input.
1. Nc1ccc(S(=O)(=O)[N-]c2cnc3ccccc3n2)cc1.[Na+] [Sulfaquinoxaline sodium]
2. COc1ccc(CC2c3cc(Oc4cc(CC5c6cc(O)c(OC)cc6CCN5C)ccc4O)c(OC)cc3CCN2C)cc1 (configuration not stated)
3. O=c1ccc2cc(O)ccc2o1 [6-Hydroxycoumarin]
4. C=C(C)C1CC=C(C=NO)CC1 (configuration not stated)
5. CC(C)=CCCC1(C)CCC2(C)C3CCC4(C)C(C)C(=O)CCC4C3(C)CCC2(C)C1 (configuration not stated)
6. CC1(C)CCC[C@@]2(C)OC(=O)C=C12

Response:
184.69 Å²
238.39 Å²
129.59 Å²
138.73 Å²
211.34 Å²
138.93 Å²

* * *

Provide the recorded collision cross section for the entries that follow.
assay: collision cross section (DTIM-MS, N2); higher = larger ion; settings: ion adduct: [M-H]-
Give bare numbers, in Å².

CN(C)NC(=O)CCC(=O)O [Daminozide]    135.88
O=C(/C=C/c1ccc(O)c(O)c1)OCCc1ccccc1    176.94
C[C@]12C=CC(=O)C=C1CC[C@@H]1[C@@H]2C(=O)C[C@@]2(C)[C@H]1CC[C@]2(O)C(=O)CO    191.16

Now for the molecule whose collision cross section we want.
Query: Record request: collision cross section value, item CC(=O)OC5CC(=O)O[C@@](C)(C)[C@@H]6CC(=O)[C@]3(C)[C@H](CC[C@@]2(C)[C@@H](OC(=O)[C@H]1O[C@]123)c4ccoc4)[C@@]56C (some centres undefined)
Response: 219.9

* * *

assay: collision cross section (DTIM-MS, N2); higher = larger ion; settings: ion adduct: [M-H]-
observed-property: collision cross section (Å²)
Answers are plain numbers, in Å².

C=CC[C@]1(O)CC[C@H]2[C@@H]3CCC4=CC(=O)CCC4=C3C=C[C@@]21C    180.56

For each of the items listed, what is its collision cross section?
1. COc1cc(/C=C/C(=O)O)cc(OC)c1OC
2. COC(=O)C1=CO[C@@H](O[C@@H]2O[C@H](CO)[C@@H](O)[C@H](O)[C@H]2O)[C@H]2[C@@H]1[C@H](O)C[C@]2(C)OC(C)=O [8-O-Acetylshanzhiside methyl ester]
3. Oc1c(Cl)cc(Cl)cc1Sc1cc(Cl)cc(Cl)c1O

Response:
1. 167.91
2. 208.19
3. 169.35
